molecular target: Recombinant human MMP-13 (Homo sapiens); construct: made in house; host or cells: baculovirus / insect cells; assay: biochemical; details: fluorogenic MCA-peptide substrate, pH 7.5, room temperature; read-out: MMP-13 IC50
pIC50: −log10 of the molar value.
Label rule, in plain words: pIC50 of 8 and up is yes (1), under 8 is no (0).

Compound	System Under Test	Qualitative Label
COCCN1CCC(C(=O)NO)(S(=O)(=O)c2ccc(N3CCC(C(=O)c4ccc(CC5CCCCC5)cc4)CC3)cc2)CC1 [Example 203]	Recombinant human MMP-13 (Homo sapiens)	yes (1)
Cc1ccc(C2CCN(c3ccc(S(=O)(=O)C4(C(=O)NO)CCN(C5CC5)CC4)cc3)CC2)cc1 [Example 272]	Recombinant human MMP-13 (Homo sapiens)	yes (1)
O=C(c1ccc(CC2CCCC2)cc1)C1CCN(c2ccc(S(=O)(=O)C3(C(=O)NO)CCOCC3)cc2)CC1 [Example 379]	Recombinant human MMP-13 (Homo sapiens)	yes (1)
COCCN1CCC(C(=O)NO)(S(=O)(=O)c2ccc(N3CCC(C(=O)c4ccc(CC(C)C)cn4)CC3)cc2)CC1 [Example 253]	Recombinant human MMP-13 (Homo sapiens)	yes (1)
CCc1ccc(C(=O)C2CCN(c3ccc(S(=O)(=O)C4(C(=O)NO)CCN(S(C)(=O)=O)CC4)cc3)CC2)cc1 [Example 220]	Recombinant human MMP-13 (Homo sapiens)	yes (1)
COCCN1CCC(C(=O)NO)(S(=O)(=O)c2ccc(N3CCC(C(=O)c4cccc(C)c4)CC3)c(Cl)c2)CC1 [Example 277]	Recombinant human MMP-13 (Homo sapiens)	no (0)
O=C(NO)C1(S(=O)(=O)c2ccc(N3CCC(c4ccc(Cl)cc4)CC3)cc2)CCN(CC2CC2)CC1 [Example 266]	Recombinant human MMP-13 (Homo sapiens)	yes (1)
C=CCN1CCN(C(=O)C2CCN(c3ccc(S(=O)(=O)C4(C(=O)NO)CCOCC4)cc3)CC2)CC1 [Example 34]	Recombinant human MMP-13 (Homo sapiens)	no (0)
O=C(c1ccc2ccccc2c1)C1CCN(c2ccc(S(=O)(=O)C3(C(=O)NO)CCN(CC4CC4)CC3)cc2)CC1 [Example 187]	Recombinant human MMP-13 (Homo sapiens)	yes (1)
O=C(C1CCN(c2ccc(S(=O)(=O)C3(C(=O)NO)CCOCC3)cc2)CC1)N1CCN(C2CCCC2)CC1 [Example 14]	Recombinant human MMP-13 (Homo sapiens)	no (0)
O=C(NO)C1(S(=O)(=O)c2ccc(N3CCC(SCc4ccc(OC(F)(F)F)cc4)CC3)cc2)CCN(C2CC2)CC1 [Example 143]	Recombinant human MMP-13 (Homo sapiens)	yes (1)
COc1ccc(C(=O)C2CCN(c3ccc(S(=O)(=O)C4(C(=O)NO)CCN(C(=O)c5ccco5)CC4)cc3)CC2)cc1 [Example 139]	Recombinant human MMP-13 (Homo sapiens)	yes (1)
COCCN1CCC(C(=O)NO)(S(=O)(=O)c2ccc(N3CCC(C(=O)c4ccc(CCC5CCCC5)cc4)CC3)cc2)CC1 [Example 204]	Recombinant human MMP-13 (Homo sapiens)	yes (1)
COCCN1CCC(C(=O)NO)(S(=O)(=O)c2ccc(N3CCC(C(=O)c4cccc(Cl)c4)CC3)cc2)CC1 [Example 186]	Recombinant human MMP-13 (Homo sapiens)	yes (1)
O=C(c1ccco1)N1CCN(C(=O)C2CCN(c3ccc(S(=O)(=O)C4(C(=O)NO)CCOCC4)cc3)CC2)CC1 [Example 13]	Recombinant human MMP-13 (Homo sapiens)	no (0)
CCCCc1ccc(C(=O)C2CCN(c3ccc(S(=O)(=O)C4(C(=O)NO)CCN(CCOC)CC4)cc3)CC2)s1 [Example 121]	Recombinant human MMP-13 (Homo sapiens)	yes (1)
C#CCN1CCC(C(=O)NO)(S(=O)(=O)c2ccc(N3CCC(C(=O)c4ccc(OC(C)C)c(C)c4)CC3)cc2)CC1 [Example 162]	Recombinant human MMP-13 (Homo sapiens)	yes (1)
O=C(NO)C1(S(=O)(=O)c2ccc(N3CCC(c4nnc(-c5ccc(C(F)(F)F)cc5)o4)CC3)cc2)CCOCC1 [Example 375]	Recombinant human MMP-13 (Homo sapiens)	no (0)
O=C(C1CCN(c2ccc(S(=O)(=O)C3(C(=O)NO)CCOCC3)cc2)CC1)N1CCN(c2ccc([N+](=O)[O-])cc2)CC1 [Example 25]	Recombinant human MMP-13 (Homo sapiens)	yes (1)
O=C(NO)C1(S(=O)(=O)c2ccc(N3CCC(Sc4nc5ccccc5s4)CC3)cc2)CCN(C2CC2)CC1 [Example 185]	Recombinant human MMP-13 (Homo sapiens)	yes (1)
O=C(C1CCN(c2ccc(S(=O)(=O)C3(C(=O)NO)CCOCC3)cc2)CC1)N1CCN(CCO)CC1 [Example 10]	Recombinant human MMP-13 (Homo sapiens)	no (0)
CCN1CCC(C(=O)NO)(S(=O)(=O)c2ccc(N3CCC(C(=O)c4ccc(CCC5CCCC5)cc4)CC3)cc2)CC1 [Example 237]	Recombinant human MMP-13 (Homo sapiens)	yes (1)
C#CCN1CCC(C(=O)NO)(S(=O)(=O)c2ccc(N3CCC(C(=O)c4ccc(OC)cc4)CC3)cc2)CC1 [Example 151]	Recombinant human MMP-13 (Homo sapiens)	yes (1)
COCCN1CCC(C(=O)NO)(S(=O)(=O)c2ccc(N3CCC(C(=O)c4cccc(OC)c4)CC3)c(Cl)c2)CC1 [Example 276]	Recombinant human MMP-13 (Homo sapiens)	no (0)
O=C(c1ccc(F)c(F)c1)C1CCN(c2ccc(S(=O)(=O)C3(C(=O)NO)CCOCC3)cc2)CC1 [Example 302]	Recombinant human MMP-13 (Homo sapiens)	yes (1)
COCCN1CCC(C(=O)NO)(S(=O)(=O)c2ccc(N3CCC(C(=O)c4ccc(OC(C)C)c(F)c4)CC3)cc2)CC1 [Example 250]	Recombinant human MMP-13 (Homo sapiens)	yes (1)
C[C@@H]1CN(C(=O)C2CCN(c3ccc(S(=O)(=O)C4(C(=O)NO)CCOCC4)cc3)CC2)C[C@H](C)O1 [Example 30]	Recombinant human MMP-13 (Homo sapiens)	no (0)
